B1: HDV Ribozyme (parent)
chain: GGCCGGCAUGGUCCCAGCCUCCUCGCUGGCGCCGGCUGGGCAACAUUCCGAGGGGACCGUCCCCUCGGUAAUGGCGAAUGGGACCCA

Variants of: B1
Method notes: self-cleavage, relative activity (ratio to wild type); higher = more cleavage; co-transcriptional
Assign class by self-cleavage: not lower than 0.2 means class 1; lower than 0.2 means class 0.

G2A C4G; class 0
G2C C49A; class 0
C7U C61U; class 1
C4G G10C; class 1
C48A G68A; class 1
G39U C85U; class 1
G2C U72C; class 0
G39A G82U; class 0
C26G C30G; class 0
C33G A42C; class 0
G40C A45U; class 1
C41G C58A; class 1
C4A G40C; class 0
